- measurement-target: human C5 protein (human, UniProt P01031 19-673; P01031 678-1676)
- assay-method-text: cell-based or functional assay
Starred links: 1 amine or outer side, 2 acyl side, 3 side chain; linkers in the order of their positions; H or OH if unused. Positions of bridges follow the written chain, without caps; N, C: chain ends. Non-standard residues stand in square brackets, D forms with d. Primed or numbered codes have the meaning given here. Lys‑C8 = N-ε-caprylic lysine, CCCCCCCC(=O)NCCCC[C@H](N[*:1])C(=O)[*:2]; mXylyl(3) = bridging moiety between the two residues given in brackets; m‑xylyl = bridging moiety between the two residues given in brackets; mXylyl″ = bridging moiety between the two marked residues; Trp(7-aza) = N[C@@H](Cc1c[nH]c2ncccc12)C(=O)O; mXylyl(4) = bridging moiety between residues; Trp(1-Me) = Cn1cc(C[C@H](N)C(=O)O)c2ccccc21; oXylylene = c1ccc(C[*:2])c(C[*:1])c1; pXylylene = c1cc(C[*:2])ccc1C[*:1]; dPhg = N[C@@H](C(=O)O)c1ccccc1; Phg = N[C@H](C(=O)O)c1ccccc1; Tle = CC(C)(C)[C@H](N)C(=O)O; NMeS = CN[C@@H](CO)C(=O)O; hCys = N[C@@H](CCS)C(=O)O; Nle = CCCC[C@H](N)C(=O)O; Pra = C#CC[C@H](N)C(=O)O; Nva = CCC[C@H](N)C(=O)O
observation-type: Avg. IC50, human hemolysis assay

Solved cases (5 shown):
>>> recorded_value("Ac-YEN[Tle]Y[Trp(1-Me)]EYP[Phg][Nva]-NH2 (SMILES CCC[C@H](NC(=O)[C@@H](NC(=O)[C@@H]1CCCN1C(=O)[C@H](Cc1ccc(O)cc1)NC(=O)[C@H](CCC(=O)O)NC(=O)[C@H](Cc1cn(C)c2ccccc12)NC(=O)[C@H](Cc1ccc(O)cc1)NC(=O)[C@@H](NC(=O)[C@H](CC(N)=O)NC(=O)[C@H](CCC(=O)O)NC(=O)[C@H](Cc1ccc(O)cc1)NC(C)=O)C(C)(C)C)c1ccccc1)C(N)=O) [R3110]")
"2940 nM"
>>> recorded_value("Ac-CAERFCD[Tle]Y[Trp(7-aza)]EYP[Phg][Lys‑C8]-NH2 (linker 1-6 via m‑xylyl) [R3166]")
"17.5 nM"
>>> recorded_value("Ac-[Nva]C[Phg]T[Trp(7-aza)]EY[NMeS]H[hCys][Nva]-NH2 (linker 2-10 via pXylylene; SMILES CCC[C@H](NC(=O)[C@@H]1CCSCc2ccc(cc2)CSC[C@H](NC(=O)[C@H](CCC)NC(C)=O)C(=O)N[C@@H](c2ccccc2)C(=O)N[C@@H]([C@@H](C)O)C(=O)N[C@@H](Cc2c[nH]c3ncccc23)C(=O)N[C@@H](CCC(=O)O)C(=O)N[C@@H](Cc2ccc(O)cc2)C(=O)N(C)[C@@H](CO)C(=O)N[C@@H](Cc2c[nH]cn2)C(=O)N1)C(N)=O) [R3106]")
"> 5000 nM"
>>> recorded_value("Ac-[Nva]C[Phg]T[Trp(7-aza)]DY[NMeS]AC[Nva]-NH2 (linker 2-10 via mXylyl(3)) [R3097]")
"> 100000 nM"
>>> recorded_value("Ac-CVERFCA[Tle]Y[Trp(7-aza)]EYP[dPhg][Nva]-NH2 (linker 1-6 via m‑xylyl) [R3158]")
"327 nM"

Query: Quick one: Avg. IC50, human hemolysis assay for Ac-[Nva]C[Phg]T[Trp(7-aza)]EY[NMeS]HC[Nva]-NH2 (linker 2-10 via oXylylene; SMILES CCC[C@H](NC(=O)[C@@H]1CSCc2ccccc2CSC[C@H](NC(=O)[C@H](CCC)NC(C)=O)C(=O)N[C@@H](c2ccccc2)C(=O)N[C@@H]([C@@H](C)O)C(=O)N[C@@H](Cc2c[nH]c3ncccc23)C(=O)N[C@@H](CCC(=O)O)C(=O)N[C@@H](Cc2ccc(O)cc2)C(=O)N(C)[C@@H](CO)C(=O)N[C@@H](Cc2c[nH]cn2)C(=O)N1)C(N)=O) [R3049] ?
Reply: > 3100 nM

Query: Quick one: Avg. IC50, human hemolysis assay for Ac-[Nva]CKE[Phg]YC[NMeS][Tle]K[Trp(7-aza)]EY-NH2 (linker 2-7 via mXylyl″) [R3007] ?
Reply: 314 nM

Query: Quick one: Avg. IC50, human hemolysis assay for Ac-[Nle]C[Phg]T[Trp(7-aza)]EY[NMeS]HC[Nva]-NH2 (linker 2-10 via mXylyl(3)) [R3112] ?
Reply: > 5000 nM

Query: Quick one: Avg. IC50, human hemolysis assay for Ac-[Tle]Y[Trp(7-aza)]EYP[Phg][Nva]-NH2 (SMILES CCC[C@H](NC(=O)[C@@H](NC(=O)[C@@H]1CCCN1C(=O)[C@H](Cc1ccc(O)cc1)NC(=O)[C@H](CCC(=O)O)NC(=O)[C@H](Cc1c[nH]c2ncccc12)NC(=O)[C@H](Cc1ccc(O)cc1)NC(=O)[C@@H](NC(C)=O)C(C)(C)C)c1ccccc1)C(N)=O) [R3028] ?
Reply: > 10000 nM

Query: Quick one: Avg. IC50, human hemolysis assay for Ac-[Nva]C[Phg]T[Trp(7-aza)]EY[NMeS][dA]C[Nva]-NH2 (linker 2-10 via mXylyl(3)) [R3135] ?
Reply: > 25000 nM

Query: Quick one: Avg. IC50, human hemolysis assay for Ac-[Nva]C[Phg]T[Trp(7-aza)]EY[NMeS]H[hCys][Nva]-NH2 (linker 2-10 via mXylyl(3)) [R3105] ?
Reply: > 5000 nM

Query: Quick one: Avg. IC50, human hemolysis assay for Ac-[Nva]C[Phg]T[Trp(7-aza)]EY[NMeS]HCA-NH2 (linker 2-10 via mXylyl(4)) [R3039] ?
Reply: 240 nM

Query: Quick one: Avg. IC50, human hemolysis assay for Ac-CVERFCDVYWEF[Pra]-NH2 (linker 1-6 via mXylyl(3)) [R3147] ?
Reply: 138 nM

Query: Quick one: Avg. IC50, human hemolysis assay for Ac-[Nva]C[Phg]T[Trp(7-aza)]EYSAC[Nva]-NH2 (linker 2-10 via mXylyl(3)) [R3084] ?
Reply: > 100000 nM
